System: TP53
Test: 3' UTR reporter interaction score (median-centred robust z-score of log2 firefly/Renilla activity); higher = less repression of the 3' UTR reporter
Settings: HEK293T; 48 h
ATTRIBUTE MEASURED: 3' UTR reporter interaction score
// return a plain number; no unit text

Query string: Retrieve 3' UTR reporter interaction score measured for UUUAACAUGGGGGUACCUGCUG and print it.
Result string: -0.238

Query string: Provide measured 3' UTR reporter interaction score value, entry: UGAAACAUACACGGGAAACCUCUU
Result string: -0.757

Query string: Give a short answer stating reported 3' UTR reporter interaction score for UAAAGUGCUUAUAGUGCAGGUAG .
Result string: -0.181

Query string: Give me measured 3' UTR reporter interaction score, please, for this sequence: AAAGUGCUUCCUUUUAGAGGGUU
Result string: -0.295

Query string: Dear colleague, please send me the reported 3' UTR reporter interaction score for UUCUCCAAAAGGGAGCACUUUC when you can.
Result string: -0.24

Query string: Output measured 3' UTR reporter interaction score for this item: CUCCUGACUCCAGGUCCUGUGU
Result string: 0.342

Query string: Supply reported 3' UTR reporter interaction score belonging to this sequence: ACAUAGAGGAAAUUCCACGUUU
Result string: 1.11

Query string: Indicate the recorded 3' UTR reporter interaction score value for this sequence: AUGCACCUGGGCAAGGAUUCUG
Result string: -0.0328

Query string: Supply 3' UTR reporter interaction score value. Item: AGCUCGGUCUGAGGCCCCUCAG
Result string: 0.0655

Query string: Hello, please tell me recorded 3' UTR reporter interaction score for this one: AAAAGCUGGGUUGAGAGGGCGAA
Result string: -0.479

---

Test system: ZEB2
Test: 3' UTR reporter interaction score (median-centred robust z-score of log2 firefly/Renilla activity); higher = less repression of the 3' UTR reporter
Conditions: HEK293T; 48 h
Assign class by 3' UTR reporter interaction score: not lower than -0.3 means 1; lower than -0.3 means -1.

Recorded results for 10 sequences are shown here.
In [3]: df
Out[3]:
                     chain  assigned_class
0   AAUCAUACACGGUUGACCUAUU              -1
1   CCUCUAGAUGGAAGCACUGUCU               1
2  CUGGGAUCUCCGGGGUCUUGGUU               1
3    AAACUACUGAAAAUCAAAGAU              -1
4      GGGCGCCUGUGAUCCCAAC               1
5     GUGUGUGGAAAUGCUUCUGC              -1
6   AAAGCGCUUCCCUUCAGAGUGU              -1
7   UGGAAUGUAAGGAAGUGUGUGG               1
8  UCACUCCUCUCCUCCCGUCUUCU               1
9   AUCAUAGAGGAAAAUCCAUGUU              -1

Query string: Does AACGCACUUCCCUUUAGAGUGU have a reported 3' UTR reporter interaction score of at least -0.3?
Result string: 1

Query string: # check: 3' UTR reporter interaction score of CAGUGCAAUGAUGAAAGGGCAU is greater than or equal to -0.3
Result string: -1

Query string: Quick check: does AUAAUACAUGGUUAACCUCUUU have 3' UTR reporter interaction score greater than or equal to -0.3?
Result string: -1

Query string: Answer whether 3' UTR reporter interaction score of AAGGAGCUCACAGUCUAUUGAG is greater than or equal to -0.3.
Result string: 1

Query string: Is 3' UTR reporter interaction score at least -0.3? Consider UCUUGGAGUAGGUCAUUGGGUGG
Result string: 1

Data origin: the supplement of paper PMC5844555
